- Test system: HCT-116
- assay.info: NCI tumour cell line growth inhibition, 48 h
Activity calls are given as the source filed them. Rule as the data show it: active = GI50 up to about 1.1 µM and inactive = higher.

| molecule | GI50 |
| --- | --- |
| N=C(N)NS(=O)(=O)c1ccc(NCCc2c3ccccc3nc3ccccc23)cc1 | 41.9 µM (inactive) |
| Cc1cc(C)nc(NS(=O)(=O)c2ccc(NC(=O)c3ccc(Cl)c4c(Nc5ccc(S(=O)(=O)N=C(N)N)cc5)c5ccccc5nc34)cc2)n1 | 24 µM (inactive) |
| CCOC(=O)C1(F)S(=O)(=O)OCCOS1(=O)=O | > 100 µM (inactive) |
| Nc1ccc(-c2nc3cc(F)ccc3s2)cc1I | 18.5 µM (inactive) |
| CCC(/C(=N\Nc1c(Cl)cc(Cl)cc1Cl)c1ccccc1)n1ccnc1C (stereo not given) | 7.05 µM (inactive) |

====

Listed compounds paired with reported GI50
- Test system: CCRF-CEM
- assay.info: NCI tumour cell line growth inhibition, 48 h
The source made the active and inactive calls. No stated cut-off is given here; in the data, active = GI50 up to about 1.1 µM and inactive = higher.

| compound | target.or.test.system | GI50 |
| --- | --- | --- |
| O=C(Nc1ccc(Cl)cc1)Oc1ccc(C(=S)Nc2ccc(Br)cc2)cc1 | CCRF-CEM | 3.04 µM (inactive) |
| CC(C)(C)OC(=O)Cn1ncn(NC(=O)Cc2ccccc2)c1=S | CCRF-CEM | > 10 µM (inactive) |
| CCC1OC2C(CC=C(C)C)=C3OC(C)(O)C(C)(CC)C(O)C3=C3OC(=O)C=C1C32 (stereo unspecified) | CCRF-CEM | 33.6 µM (inactive) |
| Cc1cccc(NC(=O)c2c(N)[n+]([O-])c3ccccc3[n+]2[O-])c1 | CCRF-CEM | 4.68 µM (inactive) |
| O=C1OC(OC/C(Br)=C(\Br)COC2OC(=O)C(Cl)=C2Cl)C(Cl)=C1Cl (stereo unspecified) | CCRF-CEM | 0.659 µM (active) |
| CC1=C(C)C(=O)C(C2=C(C3=CC(=O)C(C)=C(C)C3=O)C(=O)c3ccccc3C2=O)=CC1=O | CCRF-CEM | 0.619 µM (active) |
| Nc1ccc(CCN2CCN(CCCc3ccccc3)CC2)cc1 | CCRF-CEM | 48.2 µM (inactive) |
| Cn1cnc([N+](=O)[O-])c1Sc1nncc2[nH]cnc12 | CCRF-CEM | > 100 µM (inactive) |
| Cc1cccc(C2=NC(C)(C)C(C)(C)N=C2c2cccc(C)n2)n1 | CCRF-CEM | 71 µM (inactive) |
| CC(C)Cc1ccc(C(C)/C=C2\CCC(CN3CCCC3)C2=O)cc1 (stereo unspecified) | CCRF-CEM | 2.22 µM (inactive) |
| COc1ccc(-c2cc(-c3ccc(Nc4ccnc5cc(Cl)ccc45)cc3)[nH]c(=O)c2C#N)c2ccccc12 | CCRF-CEM | 1.09 µM (active) |
| COc1ccc(C(=O)O)c(Cc2ccc3ccccc3c2)c1 | CCRF-CEM | > 100 µM (inactive) |
| C#CCN1CCN(C(=S)N/N=C(\C)c2ccccn2)CC1 | CCRF-CEM | 0.01 µM (active) |
| COc1cc2c(c(OC)c1)C(=O)C(=O)C(CC1(C)OCCCO1)=C2 | CCRF-CEM | 1.91 µM (inactive) |
| CCCCCc1cc2c(cc1O)CC[C@@H]1[C@@H]2CC[C@]2(C)[C@@H](O)CC[C@@H]12 | CCRF-CEM | 35.3 µM (inactive) |
| COC1=C(C(=O)OC(C)(C)C)C23CCCCC2(C(C(=O)OC(C)(C)C)=C(OC)C3C(=O)OC(C)(C)C)C1C(=O)OC(C)(C)C (stereo unspecified) | CCRF-CEM | 27.9 µM (inactive) |
| COc1cc(OC)c2nc(C)c(CCCl)c(Cl)c2c1 | CCRF-CEM | > 100 µM (inactive) |
| O=C1NCCCNCCCNCCCNC(=O)c2cccc1n2 | CCRF-CEM | > 100 µM (inactive) |
| O=c1[nH]nc(-c2cccc(Br)c2)[nH]1 | CCRF-CEM | > 100 µM (inactive) |
| N#Cc1cccc(/C=N/N/C(N)=N/O)c1 | CCRF-CEM | 57.7 µM (inactive) |
| O=C1CC(c2ccc(O)cc2)C2(O1)C(=O)OC(C(O)CO)C2O (stereo unspecified) | CCRF-CEM | > 100 µM (inactive) |

Ref: ChEMBL document CHEMBL1201862
